- Tested on: Mast/stem cell growth factor receptor Kit (Homo sapiens), P10721 [V560G]
- Sequence (P10721 whole entry V560G): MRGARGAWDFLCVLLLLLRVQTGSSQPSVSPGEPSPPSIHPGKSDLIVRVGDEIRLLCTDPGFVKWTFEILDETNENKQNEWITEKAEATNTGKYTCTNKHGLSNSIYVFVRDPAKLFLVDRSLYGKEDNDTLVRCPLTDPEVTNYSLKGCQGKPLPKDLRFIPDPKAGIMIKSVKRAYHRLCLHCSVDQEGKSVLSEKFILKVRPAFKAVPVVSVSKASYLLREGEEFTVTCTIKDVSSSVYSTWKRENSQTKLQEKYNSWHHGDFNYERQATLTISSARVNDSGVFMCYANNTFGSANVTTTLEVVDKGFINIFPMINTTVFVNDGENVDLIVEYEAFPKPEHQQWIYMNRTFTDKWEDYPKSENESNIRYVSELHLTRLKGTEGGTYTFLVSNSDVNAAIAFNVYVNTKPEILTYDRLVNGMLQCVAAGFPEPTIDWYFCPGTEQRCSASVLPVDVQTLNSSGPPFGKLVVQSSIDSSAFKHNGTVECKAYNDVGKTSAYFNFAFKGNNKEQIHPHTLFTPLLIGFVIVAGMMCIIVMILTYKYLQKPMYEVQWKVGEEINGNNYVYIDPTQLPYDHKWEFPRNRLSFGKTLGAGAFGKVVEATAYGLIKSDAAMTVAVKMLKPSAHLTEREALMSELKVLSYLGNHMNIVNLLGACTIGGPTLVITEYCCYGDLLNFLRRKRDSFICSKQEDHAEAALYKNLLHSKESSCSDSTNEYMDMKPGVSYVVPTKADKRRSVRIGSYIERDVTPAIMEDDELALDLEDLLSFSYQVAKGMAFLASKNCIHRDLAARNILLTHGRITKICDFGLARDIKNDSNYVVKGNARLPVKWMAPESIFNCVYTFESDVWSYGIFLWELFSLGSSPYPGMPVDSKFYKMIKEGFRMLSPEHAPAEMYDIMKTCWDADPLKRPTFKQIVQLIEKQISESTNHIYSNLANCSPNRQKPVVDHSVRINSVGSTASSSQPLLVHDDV
- CONDITION_INFO: at 1 µM
EXPERIMENTAL_READOUT: inhibition (%)
Give bare numbers, in %.

The compound identified as COc1ccc(-c2coc3ncnc(N)c23)cc1 registered its inhibition at 7.39

Provide inhibition for all items below, preserving their order.
1. Cc1ccc(NC(=O)c2ccnc(N3CCCC3)c2)cc1-c1ccc(C(=O)NCC2CC2)cc1
2. COc1cc2ncn(-c3cc(O[C@H](C)c4ccccc4Cl)c(C(N)=O)s3)c2cc1OC
3. CS(=O)(=O)CCNCc1nc(-c2ccc3ncnc(Nc4ccc(F)c(Cl)c4)c3c2)cs1
4. COc1cccc(-n2ncc3c(N/N=C/c4cccc(F)c4)ncnc32)c1
5. COC(=O)Nc1nc2cc(Oc3cccc(NC(=O)Nc4cc(C(F)(F)F)ccc4F)c3)ccc2[nH]1
6. CCCN1CCC(Oc2cc(Nc3nc(Nc4cccc(F)c4C(N)=O)c4cc[nH]c4n3)c(OC)cc2Cl)CC1
7. CCCN1CCC=C(c2ccc(Nc3nc(Nc4ccccc4C(N)=O)c4cc[nH]c4n3)c(C)c2)C1
8. c1cnn2ncc(-c3ccnc(Nc4ccc5c(c4)OCCO5)n3)c2c1

Result:
1.23
13.9
10.7
-1.44
38.8
6.37
-3.21
83.5

Provide inhibition for all items below, preserving their order.
1. CC1=C(C(=O)Nc2ccc3[nH]ncc3c2)C(c2ccc(Cl)c(Cl)c2)CC(=O)N1 (centres undefined)
2. Fc1cccc(COc2ccc(Nc3ncnc4sc(-c5cccs5)cc34)cc2Cl)c1
3. NCc1ccc(-c2nc(-c3ccc(Cl)c(O)c3)c(-c3ccncc3)[nH]2)cc1
4. NC(=O)c1cccc(Nc2nccc(Nc3cccc4[nH]ncc34)n2)c1

Result:
1: 4.56; 2: 2.12; 3: 6.11; 4: 22.5

The compound identified as CC1=C(C(=O)Nc2ccc3[nH]ncc3c2)C(c2ccc3ccccc3c2)CC(=O)N1 (centres undefined) registered its inhibition at 2.17

----------
- TEST_TARGET: High affinity nerve growth factor receptor (Homo sapiens) (UniProt P04629);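 note: each value is a mean of replicate percent inhibition readings against TRKA kinase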
- Sequence (P04629 33-796 limits assumed): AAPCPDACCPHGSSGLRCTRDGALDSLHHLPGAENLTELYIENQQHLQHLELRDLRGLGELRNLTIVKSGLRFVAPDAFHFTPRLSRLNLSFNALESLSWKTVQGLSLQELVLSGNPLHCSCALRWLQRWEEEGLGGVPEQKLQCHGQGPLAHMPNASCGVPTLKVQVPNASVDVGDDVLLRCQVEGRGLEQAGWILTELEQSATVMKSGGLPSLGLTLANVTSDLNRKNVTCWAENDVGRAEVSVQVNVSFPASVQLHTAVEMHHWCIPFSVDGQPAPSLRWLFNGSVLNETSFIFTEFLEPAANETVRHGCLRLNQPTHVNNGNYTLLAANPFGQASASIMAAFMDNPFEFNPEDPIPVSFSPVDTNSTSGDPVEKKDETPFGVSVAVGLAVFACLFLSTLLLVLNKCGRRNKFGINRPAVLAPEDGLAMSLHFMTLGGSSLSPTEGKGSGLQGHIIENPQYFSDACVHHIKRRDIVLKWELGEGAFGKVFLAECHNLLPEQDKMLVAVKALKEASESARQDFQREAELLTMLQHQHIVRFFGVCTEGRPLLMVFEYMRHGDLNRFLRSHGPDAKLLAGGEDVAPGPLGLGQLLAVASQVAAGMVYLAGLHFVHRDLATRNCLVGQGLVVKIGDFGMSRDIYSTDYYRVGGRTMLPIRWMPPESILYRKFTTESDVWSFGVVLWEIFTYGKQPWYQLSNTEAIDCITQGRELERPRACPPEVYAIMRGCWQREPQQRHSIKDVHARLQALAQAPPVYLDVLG
- CONDITION_INFO: at 0.1 µM
Would you mind telling me the reported inhibition of each entry?
Give bare numbers, in %.

Sample records with inhibition:
The compound identified as CCn1c(-c2nonc2N)nc2c(N3CCCC3)nccc21 registered its inhibition at 1.23

The compound identified as COc1cc(C=NNc2ncnc3c2cnn3-c2ccccc2)ccc1O registered its inhibition at 3.95

The compound identified as Fc1cccc(COc2ccc(Nc3ncnc4sc(-c5cccs5)cc34)cc2Cl)c1 registered its inhibition at 1.3

Could you now look at the following compound, please?
The compound identified as Cc1nnc(-c2ccc(C)c(-c3ccc(C(=O)Nc4cccc(C#N)c4)cc3)c2)o1 registered its inhibition at 1.28

----------
- TEST_TARGET: Vascular endothelial growth factor receptor 2 (Homo sapiens);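 note: each value is the mean percent inhibition of KDR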
- CONDITION_INFO: at 1 µM
EXPERIMENTAL_READOUT: inhibition (%)
Numbers only, in %.

Sample records with inhibition:
The compound identified as O=C1NC(=O)C(N2CCc3ccccc32)=C1c1ccc(Cl)cc1 registered its inhibition at 14.6

The compound identified as CS(=O)(=O)Nc1ccc(N/C=C2\C(=O)Nc3ccccc32)cc1 registered its inhibition at 46.7

The compound identified as CCn1c(-c2nonc2N)nc2cncc(C(=O)N3CCNCC3)c21 registered its inhibition at 9.13

The compound identified as Cc1nn(C)c2cc(N(C)c3ccnc(Nc4cccc(S(N)(=O)=O)c4)n3)ccc12 registered its inhibition at 68.5

---
The compound identified as CS(=O)(=O)CCNCc1ccc(-c2ccc3ncnc(Nc4ccc(OCc5ccccc5)c(Cl)c4)c3c2)o1 registered its inhibition at 14.2

----------
- TEST_TARGET: Protein kinase C theta type (Homo sapiens);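 note: each value is a mean inhibition of PKC-theta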
- CONDITION_INFO: at 1 µM
EXPERIMENTAL_READOUT: inhibition (%)
Numbers only, in %.

Sample records with inhibition:
Bench note, Protein kinase C theta type (Homo sapiens): Fc1cccc(COc2ccc(Nc3ncnc4sc(-c5cccs5)cc34)cc2Cl)c1 , inhibition reads 0.01

Bench note, Protein kinase C theta type (Homo sapiens): Nc1nc(-c2ccc3c(c2)C(=Cc2cc(Br)c(O)c(Br)c2)C(=O)N3)cs1 , inhibition reads 0.33

Bench note, Protein kinase C theta type (Homo sapiens): c1cnn2ncc(-c3ccnc(Nc4ccc5c(c4)OCCO5)n3)c2c1 , inhibition reads 5.92

Provide inhibition for all items below, preserving their order.
1. CC(C)=Cc1cccc2c1/C(=N/Nc1ccc(S(N)(=O)=O)cc1)C(=O)N2
2. CCN1CCC(CC(=O)Nc2n[nH]c3nc(-c4cccs4)c(Br)cc23)CC1
3. Nc1nc(-c2ccccn2)c(-c2ccc3ncccc3n2)s1
4. COc1ccc(-c2coc3ncnc(N)c23)cc1
5. CCn1c(-c2nonc2N)nc2cnc(Oc3cccc(NC(=O)c4ccc(OCCN5CCOCC5)cc4)c3)cc21
6. CS(=O)(=O)CCNCc1nc(-c2ccc3ncnc(Nc4ccc(F)c(Cl)c4)c3c2)cs1
7. CCCN1CCC(Oc2cc(Nc3nc(Nc4cccc(F)c4C(N)=O)c4cc[nH]c4n3)c(OC)cc2Cl)CC1

Result:
6.89
-0.68
3.34
1.28
67.4
2.27
7.05

----------
Would you mind telling me the reported inhibition of each entry?
- TEST_TARGET: Inhibitor of nuclear factor kappa-B kinase subunit alpha (Homo sapiens);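 note: mean inhibition of IKKA, from the GSK PKIS data set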
- CONDITION_INFO: at 1 µM

Sample records with inhibition:
The compound identified as CCn1c(-c2nonc2N)nc2cncc(C(=O)N3CCNCC3)c21 registered its inhibition at 5.47%

The compound identified as Cc1nnc(-c2ccc(C)c(-c3ccc(C(=O)Nc4cccc(C#N)c4)cc3)c2)o1 registered its inhibition at 4%

The compound identified as c1cnn2ncc(-c3ccnc(Nc4ccc5c(c4)OCCO5)n3)c2c1 registered its inhibition at 60.5%

Provide inhibition for all items below, preserving their order.
1. CS(=O)(=O)CCNCc1ccc(-c2ccc3ncnc(Nc4ccc(OCc5ccccc5)c(Cl)c4)c3c2)o1
2. Nc1ncnc2occ(-c3ccc(NC(=O)Nc4cccc(C(F)(F)F)c4)cc3)c12
3. O=C1Nc2ccc(C(=O)c3ccco3)cc2C1=Cc1cc(Cl)c(O)c(Cl)c1

Result:
1: 2.45%; 2: 11.1%; 3: 8.32%

Provide inhibition for all items below, preserving their order.
1. Cc1cccc(-c2n[nH]cc2-c2ccc3ncccc3n2)n1
2. O=C1NC(=O)C(N2CCc3ccccc32)=C1c1ccc(Cl)cc1

Result:
1. 5.93%
2. 4.39%

Provide inhibition for all items below, preserving their order.
1. Cc1cc(O)cc(C)c1/C=C/c1cncc(-c2nn[nH]n2)c1
2. Fc1cccc(COc2ccc(Nc3ncnc4sc(-c5cccs5)cc34)cc2Cl)c1

Result:
4%
1.01%

----------
- TEST_TARGET: Insulin receptor (Homo sapiens) (UniProt P06213);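 note: reported values are averages of replicate inhibition measurements against the insulin receptor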
- Sequence (P06213 28-758 limits assumed): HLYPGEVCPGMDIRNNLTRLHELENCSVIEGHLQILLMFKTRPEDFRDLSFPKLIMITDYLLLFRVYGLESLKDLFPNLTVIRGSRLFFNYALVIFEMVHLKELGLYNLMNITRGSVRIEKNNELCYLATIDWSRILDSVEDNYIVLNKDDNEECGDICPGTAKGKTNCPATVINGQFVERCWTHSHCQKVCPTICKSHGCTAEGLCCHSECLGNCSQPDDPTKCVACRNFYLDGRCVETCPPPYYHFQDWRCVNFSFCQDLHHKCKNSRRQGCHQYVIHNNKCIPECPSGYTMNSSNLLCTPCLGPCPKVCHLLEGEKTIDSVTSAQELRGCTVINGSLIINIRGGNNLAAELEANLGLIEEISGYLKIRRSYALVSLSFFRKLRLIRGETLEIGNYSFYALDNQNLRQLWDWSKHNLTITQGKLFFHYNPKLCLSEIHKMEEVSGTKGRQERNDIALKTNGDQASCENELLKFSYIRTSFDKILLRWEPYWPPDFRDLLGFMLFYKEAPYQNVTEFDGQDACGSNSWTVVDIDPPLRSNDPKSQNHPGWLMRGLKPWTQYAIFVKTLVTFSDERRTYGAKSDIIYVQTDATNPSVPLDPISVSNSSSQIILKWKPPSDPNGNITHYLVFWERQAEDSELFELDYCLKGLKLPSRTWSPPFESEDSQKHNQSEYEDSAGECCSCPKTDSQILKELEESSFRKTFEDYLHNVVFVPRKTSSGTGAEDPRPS
- Sequence (P06213 763-1382 limits assumed): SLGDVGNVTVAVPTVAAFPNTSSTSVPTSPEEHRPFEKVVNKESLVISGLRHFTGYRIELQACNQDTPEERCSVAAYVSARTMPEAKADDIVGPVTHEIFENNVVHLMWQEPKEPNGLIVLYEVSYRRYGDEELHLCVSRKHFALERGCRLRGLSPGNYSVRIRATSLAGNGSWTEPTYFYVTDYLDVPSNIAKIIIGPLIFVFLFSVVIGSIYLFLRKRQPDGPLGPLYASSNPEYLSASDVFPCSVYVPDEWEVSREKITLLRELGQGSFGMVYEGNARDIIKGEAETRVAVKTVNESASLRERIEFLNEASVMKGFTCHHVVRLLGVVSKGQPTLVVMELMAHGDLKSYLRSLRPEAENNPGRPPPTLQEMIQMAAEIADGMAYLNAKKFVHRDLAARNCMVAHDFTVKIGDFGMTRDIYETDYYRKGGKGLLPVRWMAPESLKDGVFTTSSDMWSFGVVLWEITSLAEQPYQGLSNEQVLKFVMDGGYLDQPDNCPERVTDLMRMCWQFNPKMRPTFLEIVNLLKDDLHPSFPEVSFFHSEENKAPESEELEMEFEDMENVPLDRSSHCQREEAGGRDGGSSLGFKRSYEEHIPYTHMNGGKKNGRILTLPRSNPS
- CONDITION_INFO: at 0.1 µM
Would you mind telling me the reported inhibition of each entry?
Give bare numbers, in %.

The compound identified as Nc1ncnc2occ(-c3ccc(NC(=O)Nc4cc(C(F)(F)F)cc(C(F)(F)F)c4)cc3)c12 registered its inhibition at -4.81

The compound identified as Cc1ccc(C(=O)NC2CCCCC2)cc1-c1ccc(C(=O)NCC2CC2)cc1 registered its inhibition at 3.35

The compound identified as COc1cc2ncn(-c3cc(OCc4ccccc4Cl)c(C(N)=O)s3)c2cc1OC registered its inhibition at 4.5

The compound identified as Fc1cccc(COc2ccc(Nc3ncnc4sc(-c5cccs5)cc34)cc2Cl)c1 registered its inhibition at 4.85

The compound identified as COC(=O)Nc1nc2cc(Oc3cccc(NC(=O)Nc4cc(C(F)(F)F)ccc4F)c3)ccc2[nH]1 registered its inhibition at 2.67

Provide inhibition for all items below, preserving their order.
1. c1cnn2ncc(-c3ccnc(Nc4ccc5c(c4)OCCO5)n3)c2c1
2. NS(=O)(=O)c1cccc(-c2ccc3c(NC(=O)C4CC4)n[nH]c3c2)c1
3. CCn1c(-c2nonc2N)nc2c(C#CC(C)(C)O)nc(CN3CCCC3)cc21
4. CCn1c(-c2nonc2N)nc2cnc(Oc3cccc(NC(=O)c4ccc(OCCN5CCOCC5)cc4)c3)cc21

Result:
12.7
3.15
0.13
5.62

----------
- TEST_TARGET: Casein kinase II subunit alpha (Homo sapiens)
- CONDITION_INFO: at 0.1 µM
- Description: GSK_PKIS: CK2 mean inhibition at 0.1 uM [Nanosyn]
Would you mind telling me the reported inhibition of each entry?
Answers are plain numbers, in %.

Sample records with inhibition:
Bench note, Casein kinase II subunit alpha (Homo sapiens): NS(=O)(=O)c1ccc(N/N=C2\C(=O)Nc3ccc(C(=O)NCCc4c[nH]cn4)cc32)cc1 , inhibition reads 6.03

Bench note, Casein kinase II subunit alpha (Homo sapiens): CS(=O)(=O)CCNCc1nc(-c2ccc3ncnc(Nc4ccc(F)c(Cl)c4)c3c2)cs1 , inhibition reads 1.14

Bench note, Casein kinase II subunit alpha (Homo sapiens): CN(C)c1cc2c(Nc3ccc4nc(Cc5ccccc5)[nH]c4c3)ncnc2cn1 , inhibition reads 3.31

Bench note, Casein kinase II subunit alpha (Homo sapiens): CS(=O)(=O)Nc1ccc(N/C=C2\C(=O)Nc3ccccc32)cc1 , inhibition reads 2.93

Bench note, Casein kinase II subunit alpha (Homo sapiens): CNC(=O)c1cncc(/C=C/c2c(Cl)cccc2Cl)c1 , inhibition reads 16.9

Bench note, Casein kinase II subunit alpha (Homo sapiens): Cn1cc(C=C2C(=O)Nc3cccnc32)c2ccccc21 , inhibition reads 1.08

Provide inhibition for all items below, preserving their order.
1. COc1cc2c(cc1Nc1nc(N3CCc4ccccc43)c3cc[nH]c3n1)N(C(=O)CN(C)C)CC2
2. CS(=O)(=O)CCNCc1ccc(-c2ccc3ncnc(Nc4ccc(OCc5cccc(F)c5)c(C(F)(F)F)c4)c3c2)o1

Result:
[0.13, 3.22]

Provide inhibition for all items below, preserving their order.
1. Cc1cccc(-c2n[nH]cc2-c2ccc3ncccc3n2)n1
2. N#Cc1c(NC(=O)c2cccc3ccccc23)sc2c1CCCC2

Result:
1. 1.46
2. 1.53

All values here come from ChEMBL document CHEMBL1961873.
